protocol_notes: in vivo
stated_conditions: dog, po, 5 mg/kg
Description: Oral bioavailability in dog (dose 5 mg/kg)
endpoint_label: bioavailability (%)
Output spec: scalar in %, unitless text.

Q) Quickly give me recorded bioavailability for Cn1cncc1C(OCc1ccc(C#N)cc1)c1ccc(C#N)c(-c2cccc3cccnc23)c1 (stereo unspecified)
A) 53

---

protocol_notes: Pharmacokinetic (PK) property (Cmax) was determined in dog at the single dose of 1 mg/kg
Type: ADME, organism-based, Canis lupus familiaris
Design: dose 1 mg/kg
stated_conditions: in vivo
endpoint_label: Cmax (ng/mL)
Output spec: scalar in ng/mL, unitless text.

Q) Quickly give me recorded Cmax for Cn1cncc1C(OCc1ccc(C#N)nc1-c1ccc2c(c1)OC(F)(F)O2)c1ccc(C#N)cc1 (stereo unspecified)
A) 260

---

protocol_notes: Pharmacokinetic (PK) property (AUC) was determined in dog at the single oral dose of 1 mg/kg
Assay type: ADME, organism-based, Canis lupus familiaris
Set-up: dose 1 mg/kg, route oral
stated_conditions: in vivo
endpoint_label: AUC (ng·h/mL)
Output spec: scalar in ng·h/mL, unitless text.

Q) Quickly give me recorded AUC for Cn1cncc1C(OCc1ccc(C#N)nc1-c1ccc2c(c1)OC(F)(F)O2)c1ccc(C#N)cc1 (stereo unspecified)
A) 2800

---

experimental_target: Protein farnesyltransferase (Bos taurus, UniProt P29702+P49355)
protocol_notes: Inhibition of transfer of [3H]FPP to biotin K-ras peptide (KKSKTKCVIM) catalyzed by bovine FTase
Type: protein-complex assay
endpoint_label: IC50
I'd appreciate it if you wrote the number followed by its unit.

CC(=O)N1CCN(c2nc(COC(c3ccc(C#N)cc3)c3cncn3C)c(-c3cccc(Cl)c3)cc2C#N)CC1 (stereo not given)
0.98 nM

Q) Quickly give me recorded IC50 for Cn1cncc1C(OCc1ccc(C#N)cc1-c1cc(Cl)cc(Cl)c1)c1ccc(C#N)nc1 (stereo not given)
A) 0.64 nM

Q) Quickly give me recorded IC50 for COc1cccc(-c2cc(C#N)ccc2COC(c2ccc(C#N)cc2)c2cncn2C)c1 (stereo not given)
A) 0.62 nM

Q) Quickly give me recorded IC50 for Cn1cncc1C(OCc1ccc(C#N)nc1-c1ccc(OC(F)(F)F)cc1)c1ccc(C#N)cc1 (stereo not given)
A) 0.51 nM

Q) Quickly give me recorded IC50 for Cn1cncc1C(OCc1ccc(C#N)c(-c2cccc(C#N)c2)n1)c1ccc(C#N)cc1 (stereo not given)
A) 68 nM

---

Entries and their measured pIC50 follow.
experimental_target: Protein farnesyltransferase (Bos taurus, UniProt P29702+P49355)
protocol_notes: Inhibition of transfer of [3H]FPP to biotin K-ras peptide (KKSKTKCVIM) catalyzed by bovine FTase
Type: protein-complex assay
Recall that pIC50 is obtained by taking minus log10 of the concentration measured in molar.

# count of solved cases: 2
Cn1cncc1C(OCc1nc(N2CCOCC2)c(C#N)cc1-c1cccc(Cl)c1)c1ccc(C#N)cc1 (centres undefined)
9.60
Cn1cncc1C(OCc1ccc(C#N)nc1-c1cccc(OC(F)(F)F)c1)c1ccc(C#N)cc1 (centres undefined)
9.74

Q) Quickly give me recorded pIC50 for Cn1cncc1C(OCc1ncc(C#N)cc1-c1cccc(Cl)c1)c1ccc(C#N)cc1 (centres undefined)
A) 9.04

Q) Quickly give me recorded pIC50 for Cn1cncc1C(OCc1ccc(C#N)nc1N1CCOCC1)c1ccc(C#N)cc1 (centres undefined)
A) 8.72

Q) Quickly give me recorded pIC50 for Cn1cncc1C(OCc1nc(N2CCC(O)CC2)c(C#N)cc1-c1cccc(Cl)c1)c1ccc(C#N)cc1 (centres undefined)
A) 9.29

Q) Quickly give me recorded pIC50 for Cn1cncc1C(OCc1ccc(C#N)nc1-c1ccccc1)c1ccc(C#N)cc1 (centres undefined)
A) 8.41

Q) Quickly give me recorded pIC50 for CN1CCN(c2nc(COC(c3ccc(C#N)cc3)c3cncn3C)c(-c3cccc(Cl)c3)cc2C#N)CC1 (centres undefined)
A) 9.24

Q) Quickly give me recorded pIC50 for Cn1cncc1C(OCc1ccc(C#N)cc1-c1cc(F)cc(F)c1)c1ccc(C#N)nc1 (centres undefined)
A) 8.70

Q) Quickly give me recorded pIC50 for Cn1cncc1C(OCc1ccc(C#N)cc1-c1ccc2c(c1)OCO2)c1ccc(C#N)nc1 (centres undefined)
A) 9.08

---

experimental_target: Geranylgeranyl transferase type I (Bos taurus, UniProt P29702+Q5EAD5)
protocol_notes: Inhibition of [3H]FPP transfer to biotin K-ras peptide (KKSKTKCVLL) catalyzed by bovine GGTase-I
endpoint_label: pIC50
Recall that pIC50 is obtained by taking minus log10 of the concentration measured in molar.

Q) Quickly give me recorded pIC50 for Cn1cncc1C(OCc1ccc(C#N)cc1)c1ccc(C#N)c(-c2cccc3ccccc23)c1 (stereo unspecified)
A) 7.74
